Assay: MTT cytotoxicity assay
Format: cell-based, human
Details: human, HepG2 cells, HepG2, 24 h exposure
Side chains are listed from the residue outwards. Peptide text beside a SMILES is read from it.
readout_name: IC50 at 24 h (µg/mL)
Value expressed in µg/mL; do not type the unit.

Query: Recorded IC50 at 24 h for CC(C)C[C@H](NC(=O)[C@H](CC(C)C)NC(=O)[C@H](CCCNC(=N)N)NC(=O)[C@H](CC(C)C)NC(=O)[C@H](CC(C)C)NC(=O)[C@H](CCCCNC(=O)[C@H](CCCNC(=N)N)NC(=O)[C@H](CC(C)C)NC(=O)[C@@H](N)CCCNC(=N)N)NC(=O)[C@H](CCCNC(=N)N)NC(=O)[C@H](CC(C)C)NC(=O)[C@@H](N)CCCNC(=N)N)C(N)=O [G1RLR-L2RL2, (RLR)2KLLRLL-NH2] (H-RLRK([Arg-Leu-Arg])LLRLL-NH2) , please?
Reply: 328

---

Test: in vitro
Conditions: human
Square brackets hold non-standard residues; d marks the D form. Side chains are listed from the residue outwards. Peptide text beside a SMILES is read from it. Orn = NCCC[C@H](N)C(=O)O
readout_name: IC50 at 24 h (µg/mL)
Value expressed in µg/mL; do not type the unit.

Query: Recorded IC50 at 24 h for CC(C)C[C@H](NC(=O)[C@H](CC(C)C)NC(=O)[C@H](CCCN)NC(=O)[C@H](CC(C)C)NC(=O)[C@H](CC(C)C)NC(=O)[C@H](CCCCNC(=O)[C@H](CCCN)NC(=O)[C@H](CC(C)C)NC(=O)[C@@H](N)CCCN)NC(=O)[C@H](CCCN)NC(=O)[C@H](CC(C)C)NC(=O)[C@@H](N)CCCN)C(N)=O [G1OLO-L2OL2, (OLO)2KLLOLL-NH2] (H-[Orn]L[Orn]K([Orn-Leu-Orn])LL[Orn]LL-NH2) , please?
Reply: 470

Query: Cool, now CC(C)C[C@H](NC(=O)[C@H](CC(C)C)NC(=O)[C@H](CCCNC(=N)N)NC(=O)[C@H](CC(C)C)NC(=O)[C@H](CC(C)C)NC(=O)[C@H](CCCCNC(=O)[C@H](CCCNC(=N)N)NC(=O)[C@H](CC(C)C)NC(=O)[C@@H](N)CCCNC(=N)N)NC(=O)[C@H](CCCNC(=N)N)NC(=O)[C@H](CC(C)C)NC(=O)[C@@H](N)CCCNC(=N)N)C(N)=O [G1RLR-L2RL2, (RLR)2KLLRLL-NH2] (H-RLRK([Arg-Leu-Arg])LLRLL-NH2)
Reply: 153
